The values you see were collected from patent US12110283B2.

- tested on: CA IX (Homo sapiens)
- Construct: confirming upregulation and expression of CA IX in these cells; endogenous in cells
- experimental details: Ki by stopped flow CO2 hydration assay, CA IX
- experimental setup: rate of CO2 hydration, stopped flow method
- Method: In this experiment, Ki values were determined by measuring the rate of CO2 hydration of the CA spectrophotometrically by a stopped flow method in the presence of varying concentrations of the CA agents.
measurement label: Ki

Asked: Supply recorded Ki for CCN1/C(=C/C=C(/C=C/C2=[N+](CC)c3ccc4c(S(=O)(=O)[O-])cc(S(=O)(=O)O)cc4c3C2(C)C)c2ccc(C(=O)NCc3ccc(S(N)(=O)=O)cc3)cn2)C(C)(C)c2c1ccc1c(S(=O)(=O)O)cc(S(=O)(=O)O)cc21 [Compound B6] here.
Given back: 9.9 nM

----------
Entries with reported pKi on CA XII (Homo sapiens, UniProt O43570)
Sequence (O43570 25-354, species assumed): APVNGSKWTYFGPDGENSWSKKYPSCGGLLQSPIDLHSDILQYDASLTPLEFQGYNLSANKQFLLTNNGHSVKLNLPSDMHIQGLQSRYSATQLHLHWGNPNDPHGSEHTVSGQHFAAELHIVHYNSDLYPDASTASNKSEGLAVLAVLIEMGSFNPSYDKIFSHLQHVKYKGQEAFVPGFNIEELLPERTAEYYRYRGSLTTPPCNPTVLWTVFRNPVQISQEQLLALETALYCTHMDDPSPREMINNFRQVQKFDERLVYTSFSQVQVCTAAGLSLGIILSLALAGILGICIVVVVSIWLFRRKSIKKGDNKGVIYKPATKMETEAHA
Give bare numbers, as −log10 of the molar value.

Take a look at these entries with their results.
{"compound": "CC1(C)C(/C=C/C(=C/C=C2/N(CCCS(=O)(=O)O)c3ccc4c(S(=O)(=O)O)cc(S(=O)(=O)O)cc4c3C2(C)C)c2ccc(C(=O)NCc3ccc(C(=O)Nc4nnc(S(N)(=O)=O)s4)cc3)cn2)=[N+](CCCS(=O)(=O)[O-])c2ccc3c(S(=O)(=O)O)cc(S(=O)(=O)O)cc3c21 [Compound A5]", "tested on": "CA XII (Homo sapiens, UniProt O43570)", "readout number": 7.37}
{"compound": "CN(CCCC(=O)NCc1ccc(C(=O)Nc2nnc(S(N)(=O)=O)s2)cc1)S(=O)(=O)c1cccc2c3c(ccc12)[N+](CCCS(=O)(=O)[O-])=C(/C=C/C=C/C=C1/N(CCCS(=O)(=O)O)c2ccc4c(S(=O)(=O)O)cc(S(=O)(=O)O)cc4c2C1(C)C)C3(C)C [Compound A1]", "tested on": "CA XII (Homo sapiens, UniProt O43570)", "readout number": 7.24}

Turning to the following compound.
Asked: Supply recorded pKi for CC1(C)C(/C=C/C(=C/C=C2/N(CCCS(=O)(=O)O)c3ccc4c(S(=O)(=O)O)cc(S(=O)(=O)O)cc4c3C2(C)C)c2ccc(C(=O)NCCCCCC(=O)NCc3ccc(C(=O)Nc4nnc(S(N)(=O)=O)s4)cc3)cn2)=[N+](CCCS(=O)(=O)[O-])c2ccc3c(S(=O)(=O)O)cc(S(=O)(=O)O)cc3c21 [Compound A3] here.
Given back: 7.44

----------
- tested on: CA IX (Homo sapiens, UniProt Q16790)
- Construct: confirming upregulation and expression of CA IX in these cells; endogenous in cells
- experimental details: Ki by stopped flow CO2 hydration assay, CA IX
- experimental setup: rate of CO2 hydration, stopped flow method
measurement label: Ki

{"structure": "CN(CCCC(=O)NCc1ccc(C(=O)Nc2nnc(S(N)(=O)=O)s2)cc1)S(=O)(=O)c1cccc2c3c(ccc12)[N+](CCCS(=O)(=O)[O-])=C(/C=C/C=C/C=C1/N(CCCS(=O)(=O)O)c2ccc4c(S(=O)(=O)O)cc(S(=O)(=O)O)cc4c2C1(C)C)C3(C)C", "Ki": "8.4 nM"}
{"structure": "CC1(C)C(/C=C/C(=C/C=C2/N(CCCS(=O)(=O)O)c3ccc4c(S(=O)(=O)O)cc(S(=O)(=O)O)cc4c3C2(C)C)c2ccc(C(=O)NCc3ccc(C(=O)Nc4nnc(S(N)(=O)=O)s4)cc3)cn2)=[N+](CCCS(=O)(=O)[O-])c2ccc3c(S(=O)(=O)O)cc(S(=O)(=O)O)cc3c21", "Ki": "7.9 nM"}
{"structure": "CCN1/C(=C/C=C(/C=C/C2=[N+](CC)c3ccc4c(S(=O)(=O)[O-])cc(S(=O)(=O)O)cc4c3C2(C)C)c2ccc(C(=O)NCc3ccc(C(=O)Nc4nnc(S(N)(=O)=O)s4)cc3)cn2)C(C)(C)c2c1ccc1c(S(=O)(=O)O)cc(S(=O)(=O)O)cc21", "Ki": "7.7 nM"}
{"structure": "CC1(C)C(/C=C/C(=C/C=C2/N(CCCS(=O)(=O)O)c3ccc4c(S(=O)(=O)O)cc(S(=O)(=O)O)cc4c3C2(C)C)c2ccc(C(=O)NCCCCCC(=O)NCc3ccccc3)cn2)=[N+](CCCS(=O)(=O)[O-])c2ccc3c(S(=O)(=O)O)cc(S(=O)(=O)O)cc3c21", "Ki": "> 100000 nM"}

Turning to the following molecule.
Asked: Supply recorded Ki for "CC1(C)C(/C=C/C(=C/C=C2/N(CCCS(=O)(=O)O)c3ccc4c(S(=O)(=O)O)cc(S(=O)(=O)O)cc4c3C2(C)C)c2ccc(C(=O)NCCCCCC(=O)NCc3ccc(C(=O)Nc4nnc(S(N)(=O)=O)s4)cc3)cn2)=[N+](CCCS(=O)(=O)[O-])c2ccc3c(S(=O)(=O)O)cc(S(=O)(=O)O)cc3c21" here.
Given back: 7.6 nM
